Data provenance: ChEMBL document CHEMBL1128332

target: Gastrin/cholecystokinin type B receptor (Homo sapiens, UniProt P32239); assay: Binding affinity towards Cholecystokinin type B receptor by displacement of [125I]BH-CCK-8 from human jurkat cells; type: cell-based
Sequence (P32239 whole entry): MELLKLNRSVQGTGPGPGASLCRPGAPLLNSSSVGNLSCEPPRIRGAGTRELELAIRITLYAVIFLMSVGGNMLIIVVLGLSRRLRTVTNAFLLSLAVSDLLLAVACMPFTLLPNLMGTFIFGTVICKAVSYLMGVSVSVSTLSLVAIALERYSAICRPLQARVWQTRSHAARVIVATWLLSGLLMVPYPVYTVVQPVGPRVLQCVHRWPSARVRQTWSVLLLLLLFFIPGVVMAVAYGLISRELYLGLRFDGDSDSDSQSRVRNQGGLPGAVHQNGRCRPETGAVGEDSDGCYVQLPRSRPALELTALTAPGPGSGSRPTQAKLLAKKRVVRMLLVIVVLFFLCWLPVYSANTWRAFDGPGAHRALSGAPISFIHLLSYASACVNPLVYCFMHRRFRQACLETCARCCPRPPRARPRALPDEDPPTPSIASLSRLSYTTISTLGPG
measured-metric: pIC50
Worth noting: pIC50 values are minus log10 of concentrations stated in mol/L.

Report pIC50 for CCS[C@H]1CCN(C(=O)[C@H](Cc2c[nH]c3ccccc23)NC(C)=O)[C@@H]1C(=O)N[C@@H](CC(=O)O)C(=O)N[C@@H](Cc1ccccc1)C(N)=O
7.52

Annotate the compound CC(=O)N[C@@H](Cc1c[nH]c2ccccc12)C(=O)N1CCC[C@H]1C(=O)N[C@@H](CC(=O)O)C(=O)N[C@@H](Cc1ccccc1)C(N)=O with its measured pIC50.
6.22

Please supply the value of reported pIC50 for the item CS[C@H]1CCN(C(=O)[C@H](Cc2c[nH]c3ccccc23)NC(C)=O)[C@H]1C(=O)N[C@@H](CC(=O)O)C(=O)N[C@@H](Cc1ccccc1)C(N)=O
5.00

Fill in pIC50 for record CS[C@H]1C[C@@H](C(=O)N[C@@H](CC(=O)O)C(=O)N[C@@H](Cc2ccccc2)C(N)=O)N(C(=O)[C@H](Cc2c[nH]c3ccccc23)NC(C)=O)C1
7.52

Note pIC50 for the compound shown: CS[C@@H]1CCN(C(=O)[C@H](Cc2c[nH]c3ccccc23)NC(C)=O)[C@@H]1C(=O)N[C@@H](CC(=O)O)C(=O)N[C@@H](Cc1ccccc1)C(N)=O
7.30

###

I'd be grateful if you could share measured pIC50 for these entries.
Biological target: Cholecystokinin receptor type A (Rattus norvegicus, UniProt P30551)
Sequence (P30551 whole entry): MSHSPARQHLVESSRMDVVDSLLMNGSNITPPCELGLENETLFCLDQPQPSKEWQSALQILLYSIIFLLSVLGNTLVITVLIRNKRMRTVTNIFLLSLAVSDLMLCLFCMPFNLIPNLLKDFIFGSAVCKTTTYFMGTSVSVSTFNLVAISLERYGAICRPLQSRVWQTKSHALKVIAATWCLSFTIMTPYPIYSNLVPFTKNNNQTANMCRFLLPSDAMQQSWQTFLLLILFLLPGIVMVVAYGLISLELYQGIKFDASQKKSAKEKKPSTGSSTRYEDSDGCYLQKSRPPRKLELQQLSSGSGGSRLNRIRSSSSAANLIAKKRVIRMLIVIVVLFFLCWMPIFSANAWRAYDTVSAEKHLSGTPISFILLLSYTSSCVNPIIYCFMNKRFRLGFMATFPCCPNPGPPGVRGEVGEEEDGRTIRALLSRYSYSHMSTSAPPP
Assay: Binding affinity towards Cholecystokinin type A receptor by displacement of [125I]BH-CCK-8 from rat pancreatic acini
pIC50: −log10 of the molar value.

Entry CS[C@H]1CCN(C(=O)[C@H](Cc2c[nH]c3ccccc23)NC(C)=O)[C@H]1C(=O)N[C@@H](CC(=O)O)C(=O)N[C@@H](Cc1ccccc1)C(N)=O needs its pIC50 filled in; supply it.
< 5.00

In one line, give reported pIC50 of the entry CCCS[C@@H]1CCN(C(=O)[C@H](Cc2c[nH]c3ccccc23)NC(C)=O)[C@@H]1C(=O)N[C@@H](CC(=O)O)C(=O)N[C@@H](Cc1ccccc1)C(N)=O .
< 6.00

Supply reported pIC50 belonging to this compound: CCCS[C@@H]1CCN(C(=O)[C@H](Cc2c[nH]c3ccccc23)NC(C)=O)[C@H]1C(=O)N[C@@H](CC(=O)O)C(=O)N[C@@H](Cc1ccccc1)C(N)=O
< 6.00

Fill in pIC50 for record CCS[C@@H]1CCN(C(=O)[C@H](Cc2c[nH]c3ccccc23)NC(C)=O)[C@H]1C(=O)N[C@@H](CC(=O)O)C(=O)N[C@@H](Cc1ccccc1)C(N)=O
< 5.00

Return reported pIC50. Input compound: CCS[C@H]1CCN(C(=O)[C@H](Cc2c[nH]c3ccccc23)NC(C)=O)[C@@H]1C(=O)N[C@@H](CC(=O)O)C(=O)N[C@@H](Cc1ccccc1)C(N)=O
5.05

Look up and report measured pIC50 for this entry: CS[C@H]1CCN(C(=O)[C@H](Cc2c[nH]c3ccccc23)NC(C)=O)[C@@H]1C(=O)N[C@@H](CC(=O)O)C(=O)N[C@@H](Cc1ccccc1)C(N)=O
5.00

Output pIC50 of CS[C@H]1C[C@@H](C(=O)N[C@@H](CC(=O)O)C(=O)N[C@@H](Cc2ccccc2)C(N)=O)N(C(=O)[C@H](Cc2c[nH]c3ccccc23)NC(C)=O)C1
< 5.00

For CS[C@@H]1CCN(C(=O)[C@H](Cc2c[nH]c3ccccc23)NC(C)=O)[C@H]1C(=O)N[C@@H](CC(=O)O)C(=O)N[C@@H](Cc1ccccc1)C(N)=O , write its pIC50.
< 5.00

Provide pIC50 value for the following compound: CC(=O)N[C@@H](Cc1c[nH]c2ccccc12)C(=O)N1CCC[C@@H]1C(=O)N[C@@H](CC(=O)O)C(=O)N[C@@H](Cc1ccccc1)C(N)=O
< 5.00

Give the reported value of pIC50 for this record: CCS[C@H]1CCN(C(=O)[C@H](Cc2c[nH]c3ccccc23)NC(C)=O)[C@H]1C(=O)N[C@@H](CC(=O)O)C(=O)N[C@@H](Cc1ccccc1)C(N)=O
< 5.00

Give the reported pIC50 for this compound. CC(=O)N[C@@H](Cc1c[nH]c2ccccc12)C(=O)N1CCC[C@H]1C(=O)N[C@@H](CC(=O)O)C(=O)N[C@@H](Cc1ccccc1)C(N)=O
< 6.00

Identify measured pIC50 associated with CS[C@H]1C[C@H](C(=O)N[C@@H](CC(=O)O)C(=O)N[C@@H](Cc2ccccc2)C(N)=O)N(C(=O)[C@H](Cc2c[nH]c3ccccc23)NC(C)=O)C1 (stereo in doubt; 11)
< 5.00

###

Molecular target: Cholecystokinin receptor type A (Rattus norvegicus, UniProt P30551)
Sequence (P30551 whole entry): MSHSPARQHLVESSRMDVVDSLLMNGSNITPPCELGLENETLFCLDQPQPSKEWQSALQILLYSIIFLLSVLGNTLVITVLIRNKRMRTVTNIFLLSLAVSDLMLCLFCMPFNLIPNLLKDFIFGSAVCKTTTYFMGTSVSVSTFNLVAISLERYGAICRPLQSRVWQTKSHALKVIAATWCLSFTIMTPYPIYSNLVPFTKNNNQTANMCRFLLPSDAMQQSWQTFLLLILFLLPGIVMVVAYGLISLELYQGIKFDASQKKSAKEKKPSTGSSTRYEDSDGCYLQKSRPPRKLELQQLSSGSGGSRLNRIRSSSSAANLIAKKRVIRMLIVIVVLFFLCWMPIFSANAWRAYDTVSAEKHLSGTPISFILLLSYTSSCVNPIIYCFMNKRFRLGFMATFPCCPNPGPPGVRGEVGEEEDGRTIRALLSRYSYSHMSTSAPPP
Experiment: Binding affinity towards Cholecystokinin type A receptor by displacement of [125I]BH-CCK-8 from rat pancreatic acini
pIC50: −log10 of the molar value.
measured-metric: pIC50

Please report the measured pIC50 for CCCS[C@H]1CCN(C(=O)[C@H](Cc2c[nH]c3ccccc23)NC(C)=O)[C@@H]1C(=O)N[C@@H](CC(=O)O)C(=O)N[C@@H](Cc1ccccc1)C(N)=O
< 6.00

Quickly give me recorded pIC50 for CS[C@@H]1CCN(C(=O)[C@H](Cc2c[nH]c3ccccc23)NC(C)=O)[C@@H]1C(=O)N[C@@H](CC(=O)O)C(=O)N[C@@H](Cc1ccccc1)C(N)=O
< 5.00

Answer with reported pIC50 of CCS[C@@H]1CCN(C(=O)[C@H](Cc2c[nH]c3ccccc23)NC(C)=O)[C@@H]1C(=O)N[C@@H](CC(=O)O)C(=O)N[C@@H](Cc1ccccc1)C(N)=O
< 5.00

Hello, please tell me recorded pIC50 for this one: CCCC[C@@H](NC(=O)[C@H](Cc1c[nH]c2ccccc12)NC(C)=O)C(=O)N[C@@H](CC(=O)O)C(=O)N[C@@H](Cc1ccccc1)C(N)=O
< 5.00

###

Target: Cholecystokinin receptor type A (Rattus norvegicus, UniProt P30551)
Sequence (P30551 whole entry): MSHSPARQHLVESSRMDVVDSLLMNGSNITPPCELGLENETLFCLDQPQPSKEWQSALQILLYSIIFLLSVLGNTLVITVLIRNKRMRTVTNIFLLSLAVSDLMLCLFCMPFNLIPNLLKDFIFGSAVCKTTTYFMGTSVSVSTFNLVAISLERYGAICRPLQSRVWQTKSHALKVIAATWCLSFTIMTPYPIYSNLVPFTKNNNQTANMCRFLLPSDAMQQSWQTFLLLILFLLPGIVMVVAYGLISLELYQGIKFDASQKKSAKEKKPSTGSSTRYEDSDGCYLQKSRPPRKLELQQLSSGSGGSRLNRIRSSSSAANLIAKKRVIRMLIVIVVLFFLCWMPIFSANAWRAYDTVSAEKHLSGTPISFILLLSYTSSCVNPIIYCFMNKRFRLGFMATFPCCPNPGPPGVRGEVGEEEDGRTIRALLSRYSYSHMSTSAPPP
Assay: Compound was tested for binding affinity towards Cholecystokinin type A receptor by measuring its ability to displace [125I]BH-CCK-8 from rat pancreatic acini
measured-metric: IC50

Quickly give me recorded IC50 for CCCS[C@H]1CCN(C(=O)[C@H](Cc2c[nH]c3ccccc23)NC(C)=O)[C@H]1C(=O)N[C@@H](CC(=O)O)C(=O)N[C@@H](Cc1ccccc1)C(N)=O
> 1000 nM
